TARGET OF ASSAY: CYP3A4 (midazolam metabolite site) (Homo sapiens (Human), UniProt P08684)
Sequence (P08684 whole entry): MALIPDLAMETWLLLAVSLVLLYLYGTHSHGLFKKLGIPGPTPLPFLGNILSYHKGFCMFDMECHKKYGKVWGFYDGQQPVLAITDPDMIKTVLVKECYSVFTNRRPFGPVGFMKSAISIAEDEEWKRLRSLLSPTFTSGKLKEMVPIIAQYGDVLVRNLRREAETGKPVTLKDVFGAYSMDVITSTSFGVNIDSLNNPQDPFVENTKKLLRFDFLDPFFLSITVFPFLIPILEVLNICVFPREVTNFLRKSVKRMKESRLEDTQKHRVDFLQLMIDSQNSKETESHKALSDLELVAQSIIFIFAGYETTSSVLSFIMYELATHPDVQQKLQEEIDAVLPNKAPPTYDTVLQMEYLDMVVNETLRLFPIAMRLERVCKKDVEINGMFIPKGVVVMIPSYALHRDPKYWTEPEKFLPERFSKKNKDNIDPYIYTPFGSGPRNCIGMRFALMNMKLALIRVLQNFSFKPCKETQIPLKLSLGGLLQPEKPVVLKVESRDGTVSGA
METHOD: Inhibition of enzyme activity of midazolam metabolite site of CYP3A4 in human liver microsome
Type: in vitro ADME
DETAILS: midazolam probe substrate, 30 minutes
pIC50: −log10 of the molar value.
READOUT LABEL: pIC50

-- ask Tell me measured pIC50 for `CCCC[C@](C)(CO)Nc1nc(N)nc2cc(-c3cnc(C4CCN(C)CC4)nc3)cnc12` please.
-- reply < 4.52

-- ask Name the recorded pIC50 of the compound listed here: `CCCC[C@](C)(CO)Nc1nc(N)nc2cc(-c3ccc(CN4CCN(C)CC4)nc3)cnc12`
-- reply < 4.52

-- ask Return pIC50 (reported value) for this compound: `CCCC[C@](C)(CO)Nc1nc(N)nc2cc(-c3ccc(CN4CCCC4)nc3)cnc12`
-- reply 4.57

-- ask Fill in pIC50 for record CCCCC(C)(CO)Nc1nc(N)nc2cc(-c3ccc(CN4CCN(C)CC4)nc3)cnc12 (centres unmarked)
-- reply < 4.52

-- ask Provide pIC50 value for the following compound: `CCCC[C@](C)(CO)Nc1nc(N)nc2cc(-c3ccc(C4CCN(C)CC4)nc3)cnc12`
-- reply < 4.52
